These data points were gathered from PubChem BioAssay.

Parameter viability: see the listing below.
experiment: MRP1 drug-resistance reversers in H69AR cells – cell-based, doxorubicin co-treatment, pilot screen (AID 601); settings: H69AR cells + 2 uM doxorubicin, CellTiter-Glo, 72 h; measured here: viability with 2 uM doxorubicin; at 10 µM; stronger effect = lower value
Numeric answer only, unit % assumed.

COMPOUND	viability / %
O=C(CSc1nc2c(c(=O)n1-c1ccc(F)cc1)SCC2)NCC1CCCO1 (configuration not stated)	92.6
Cc1ccc(C(=O)CC2(O)C(=O)N(C)c3ccc(Br)cc32)c(C)c1 (configuration not stated)	91.9
COc1ccc(N(C)C(=O)CCS(=O)(=O)c2cccc3nonc23)cc1	89.6

Query: Name the recorded viability for CCCCCn1c(=O)[nH]c2cc(C(=O)NCCN3CCOCC3)ccc2c1=O .
Response: 88.5

Query: Also CC(=O)c1cccc(NC(=O)CCNS(=O)(=O)c2cccc3nsnc23)c1 ?
Response: 94.5

Query: Also Cc1ccc2[nH]c(=O)c3cc(C(=O)NCCN4CCN(C)CC4)sc3c2c1 ?
Response: 78

Query: Also CCOC(=O)c1[nH]c(C)c(C(=O)Nc2ccc(Cl)cc2)c1C ?
Response: 93

Query: Also Cn1c(=O)c2c(nc(SCCCC#N)n2Cc2c(F)cccc2Cl)n(C)c1=O ?
Response: 15.9

Query: Also CC1CCCC(N2CCN(C(=O)c3ccc(F)cc3)CC2)C1 (configuration not stated) ?
Response: 89.6

Query: Also Cc1noc(C(=O)Nc2ccc3c(c2)OCO3)c1Cl ?
Response: 97.2

Query: Also CCOc1ccc(S(=O)(=O)n2c(C)nc3ccccc32)cc1 ?
Response: 117

Query: Also Cc1ccc(-n2c3c(cc(C(=O)O)c2=O)C(=O)CC(C)(C)C3)cc1 ?
Response: 90.9

Query: Also Cn1c(=O)oc2cc(S(=O)(=O)N3CCCC(C(=O)NCC4COc5ccccc5O4)C3)ccc21 (configuration not stated) ?
Response: 90.9

Query: Also CCOC(=O)c1nc2sc3c(c2c(=O)[nH]1)CCCC3 ?
Response: 87.2

Query: Also CCn1cc(C(=O)NCCC2=CCCCC2)c(=O)c2cc(S(=O)(=O)N(C)C)ccc21 ?
Response: 62.1

Query: Also COc1ccccc1-c1nnc(SCC(=O)NC2CCCCC2)o1 ?
Response: 88.2

Query: Also COc1ccc(S(=O)(=O)NCc2ccc3c(c2)OCO3)cc1C(=O)O ?
Response: 93.4

Query: Also O=C(Cn1ncc2c1-c1ccccc1OC2)Nc1ccc(Cl)cn1 ?
Response: 91.5

Query: Also CC(C)c1nnc(NC(=O)Cc2cccs2)s1 ?
Response: 90.6

Query: Also COCCCN1C(=O)C(=O)/C(=C(/O)c2ccc(OCC(C)C)cc2C)C1c1cccnc1 (configuration not stated) ?
Response: 96.6

----------
Parameter Her2 level: see the listing below.
biological target: Receptor tyrosine-protein kinase erbB-2 (Homo sapiens); experiment: Her2 expression decrease, cell viability multiplex – SKBR3 breast tumor cells, AlphaScreen, ATP viability, primary screen (AID 461); details: 18-24 h, at 10 µM, stronger effect = lower value;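 also: lower value means less Her2 protein in the cells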
Numeric answer only, unit % assumed.

COMPOUND	Her2 level (%)
CCN1CCN(C(=O)C2CC(c3ccc(F)cc3)=NO2)CC1 (stereo not drawn)	105
CCCc1cc(C(=O)Nc2sc(C)c(C)c2C(=O)OCC)no1	79
O=C(Nc1ccc(CN2CCOCC2)cc1)c1cc2ccccn2n1	103
COc1ccccc1S(=O)(=O)Cc1ccc(C(=O)N2CCN(c3ccc(C)cc3)C(C)C2)o1 (stereo not drawn)	64.5
CCOC(=O)c1[nH]c(C)c(C(=O)Nc2ccc(C)cc2C)c1C	92
CC(C)(C)SCCNC(=O)COc1ccc(Cl)cc1	90
COCCCN1C(=O)C(=O)/C(=C(/O)c2ccc(OCC(C)C)cc2C)C1c1cccnc1 (stereo not drawn)	110
CCCCCn1c(CCNC(=O)CCC)nc2ccccc21	102
Clc1ss/c(=N\c2ccccn2)c1Cl	77
CCCOc1ccc2ccccc2c1/C=N/n1cnnc1	91

Query: Name the recorded Her2 level for CC1(C)CC(=O)C(C=NCC2CCNCC2)=C(O)C1 .
Response: 117

Query: Also Cc1onc(-c2ccccc2Cl)c1C(=O)N1CCc2ccccc21 ?
Response: 78.5

Query: Also CN(CC(=O)N1CCCCC1)S(=O)(=O)c1cccc2cccnc12 ?
Response: 104
